Source of measurements: PubChem BioAssay (NCI)

A collection of compounds and their measured growth inhibition
- measurementNotes: NCI Yeast Anticancer Drug Screen. Data for the bub3 strain (AID 167)
- condition: S. cerevisiae bub3 mutant strain, at 50.0 µM, active compounds read high
The panel holds about 79,000 compounds, 15% with a hit somewhere; the sample as a whole holds those more often.
Record the value in %, omitting the unit from your answer.

CC(C)NCC(O)COc1c2ccccc2nc2ccccc12 (configuration not stated); -20.1
Cc1ccc(C(=O)c2ccccc2C(=O)O)cc1C; 9.2
CN1CCOc2c1cnn(CCO)c2=O; -4.2
CC(=O)OC1COC(Cl)C(OC(C)=O)C1OC(C)=O (configuration not stated); -8.95
COC(=O)C1C(C(=O)OC)C2N(c3ccccc3)C=NN2C1C(=O)c1ccccc1 (configuration not stated); 5.05

Input: Supply reported growth inhibition belonging to this compound: CC(C)Nc1ncnc2c1cnn2-c1ccccc1
Output: 13.5

Input: Supply reported growth inhibition belonging to this compound: Cc1cc(N/N=C/c2ccnc3ccccc23)c2cc3c(cc2n1)OCO3
Output: 31.7
